Reference source for all entries: the RNAGym collection of RNA variant scans (doi:10.7554/elife.80360)

B1: Hairpin Ribozyme (parent)
chain: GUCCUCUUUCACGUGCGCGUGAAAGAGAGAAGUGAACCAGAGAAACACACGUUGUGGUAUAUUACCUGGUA

# Variants of: B1
# experiment: self-cleavage, relative activity (ratio to wild type); higher = more cleavage; co-transcriptional
measured.endpoint: self-cleavage
No unit in the answer, please; the number alone is enough.

Some variants with known self-cleavage results, for comparison:
{"columns": ["sequence.entry", "number"],
 "data": [
  ["GUCCUAUUUCACGUGCGCGUGAAAGAGAGAAGUGAACCAGAGAAACACACGUUGUGGUAUAUUUCCUGGUA [C6A A64U]", 0.163],
  ["GUCCUCUUUCACGUGCGCGUGACAGAAAGAAGUGAACCAGAGAAACACACGUUGUGGUAUAUUACCUGGUA [A23C G27A]", 0.464],
  ["GUUCUCUUUCACGUGCGCGUGAAAGAGAGAAAUGAACCAGAGAAACACACGUUGUGGUAUAUUACCUGGUA [C3U G32A]", 0.08],
  ["GUCCACUUUCGCGUGCGCGUGAAAGAGAGAAGUGAACCAGAGAAACACACGUUGUGGUAUAUUACCUGGUA [U5A A11G]", 0.324],
  ["GUCCUCUUUCACGUGCGCGUGAGAGAGAGAAGUGAACCAGAGAAACACACGUUGUGGUACAUUACCUGGUA [A23G U60C]", 0.924],
  ["GUCCUCUUUCACGCGCGCGUGAAAGAGAGAAGUGAACCAUAGAAACACACGUUGUGGUAUAUUACCUGGUA [U14C G40U]", 0.188],
  ["GUCCUCUUUCACGUGCGCGUGUAAGAGAGAAGUGAACCAGAGAGACACACGUUGUGGUAUAUUACCUGGUA [A22U A44G]", 0.113],
  ["GUCCUCUUUCACGUGCGCAUGAAAGAGAGAAGUGAACCAGAGAAACACACGUUGUGGUAAAUUACCUGGUA [G19A U60A]", 0.658],
  ["GUCCUCUUUCACGUGCGCGUGAAAGAGAGAAGGGUACCAGAGAAACACACGUUGUGGUAUAUUACCUGGUA [U33G A35U]", 0.16],
  ["GUCCUCUUUCACGUCCGCGUGAAAGAGAGAAGCGAACCAGAGAAACACACGUUGUGGUAUAUUACCUGGUA [G15C U33C]", 0.233]
]}

# variant GUCCACUUUCACGUGCGCGUGAAAGAGAGAAGUGAACCAGAGAAACACACGGUGUGGUAUAUUACCUGGUA [U5A U52G] ; its self-cleavage = 0.392

Record CUCCUCUUUCACGUGCGCGUGAGAGAGAGAAGUGAACCAGAGAAACACACGUUGUGGUAUAUUACCUGGUA [G1C A23G] , field self-cleavage: 0.132

Per the record, GUCCUGUUUCACGUGCGCGUGAAAGAGAGAAGUGAACCAGAGAAACACACGUUGUGGUAUAGUACCUGGUA [C6G U62G] has self-cleavage of 0.159

Query GUCCUCUCUCACGUGCGCGUGAAAGAGAGAAGUGAACCAGAGAAACACUCGUUGUGGUAUAUUACCUGGUA [U8C A49U] yields self-cleavage of 0.244

Lab note: GUCCUCCUUGACGUGCGCGUGAAAGAGAGAAGUGAACCAGAGAAACACACGUUGUGGUAUAUUACCUGGUA [U7C C10G] gave self-cleavage of 0.597

The variant GUCCUCUUUCACGUGCGCGUGAAAGAGAGAAGUGAACCAGAGAAACACACGUUGUGGUAUAUGACCUGGUA [U63G] showed self-cleavage equal to 0.171
